molecular target: human NaV1.8 (Homo sapiens, UniProt Q9Y5Y9); test: Nav1.8 Qube® Assay (automated 384-well patch-clamp, inhibition of sodium current); conditions: human NaV1.8 channels stably expressed in HEK 293 cells, room temperature
Sequence (Q9Y5Y9 whole entry): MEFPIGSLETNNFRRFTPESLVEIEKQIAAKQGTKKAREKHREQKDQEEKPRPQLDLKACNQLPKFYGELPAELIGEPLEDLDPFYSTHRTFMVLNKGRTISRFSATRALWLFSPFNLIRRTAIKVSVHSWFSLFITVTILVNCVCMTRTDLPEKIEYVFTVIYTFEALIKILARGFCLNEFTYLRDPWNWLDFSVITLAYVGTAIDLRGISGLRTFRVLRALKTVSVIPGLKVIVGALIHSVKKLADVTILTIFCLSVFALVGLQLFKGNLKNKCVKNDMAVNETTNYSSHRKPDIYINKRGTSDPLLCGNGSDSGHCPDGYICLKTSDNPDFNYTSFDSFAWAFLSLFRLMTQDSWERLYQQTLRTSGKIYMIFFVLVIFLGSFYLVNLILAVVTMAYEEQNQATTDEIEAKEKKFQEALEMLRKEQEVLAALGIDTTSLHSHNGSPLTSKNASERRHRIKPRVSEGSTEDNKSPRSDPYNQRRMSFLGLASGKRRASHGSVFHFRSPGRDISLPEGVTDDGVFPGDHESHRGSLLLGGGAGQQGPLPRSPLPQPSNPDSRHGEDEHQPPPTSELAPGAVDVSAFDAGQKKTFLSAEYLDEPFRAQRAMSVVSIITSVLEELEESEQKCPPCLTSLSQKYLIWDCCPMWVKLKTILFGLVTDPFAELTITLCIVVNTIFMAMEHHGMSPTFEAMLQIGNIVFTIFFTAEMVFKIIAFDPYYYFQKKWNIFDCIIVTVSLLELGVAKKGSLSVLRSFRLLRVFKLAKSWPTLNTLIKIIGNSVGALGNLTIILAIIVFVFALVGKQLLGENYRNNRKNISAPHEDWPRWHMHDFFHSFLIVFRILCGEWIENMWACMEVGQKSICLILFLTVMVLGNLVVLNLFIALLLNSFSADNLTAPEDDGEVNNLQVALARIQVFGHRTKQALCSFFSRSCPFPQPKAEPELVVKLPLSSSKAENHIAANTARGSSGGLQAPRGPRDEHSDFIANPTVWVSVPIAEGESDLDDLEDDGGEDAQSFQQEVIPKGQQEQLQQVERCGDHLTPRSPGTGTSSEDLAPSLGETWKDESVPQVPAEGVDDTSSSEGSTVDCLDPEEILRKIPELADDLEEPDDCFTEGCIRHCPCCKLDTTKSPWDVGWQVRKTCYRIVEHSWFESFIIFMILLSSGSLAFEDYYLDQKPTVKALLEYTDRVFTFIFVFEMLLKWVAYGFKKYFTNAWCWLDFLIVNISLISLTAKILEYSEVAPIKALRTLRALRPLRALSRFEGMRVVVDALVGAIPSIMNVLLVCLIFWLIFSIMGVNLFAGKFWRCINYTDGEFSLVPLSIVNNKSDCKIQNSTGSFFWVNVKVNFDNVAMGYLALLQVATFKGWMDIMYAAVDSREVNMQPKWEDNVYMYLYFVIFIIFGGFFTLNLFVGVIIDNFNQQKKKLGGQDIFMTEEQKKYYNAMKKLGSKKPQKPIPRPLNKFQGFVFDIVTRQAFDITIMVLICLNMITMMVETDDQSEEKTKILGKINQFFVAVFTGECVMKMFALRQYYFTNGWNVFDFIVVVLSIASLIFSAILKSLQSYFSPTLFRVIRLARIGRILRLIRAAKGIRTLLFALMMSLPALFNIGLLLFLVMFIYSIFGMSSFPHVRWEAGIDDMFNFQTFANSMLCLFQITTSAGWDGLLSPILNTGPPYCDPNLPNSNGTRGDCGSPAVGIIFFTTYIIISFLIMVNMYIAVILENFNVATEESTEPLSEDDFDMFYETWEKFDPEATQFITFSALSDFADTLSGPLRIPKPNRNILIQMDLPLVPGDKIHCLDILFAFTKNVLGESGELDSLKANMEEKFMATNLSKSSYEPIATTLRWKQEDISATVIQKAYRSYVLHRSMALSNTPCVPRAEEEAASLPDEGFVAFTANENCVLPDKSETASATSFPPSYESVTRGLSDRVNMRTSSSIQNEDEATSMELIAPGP
QUANTITY NAME: IC50 (nM)

Data point: Cc1cc(C(NC(=O)N2CCNC(=O)[C@H]2C)C2CCC(C(F)(F)F)CC2)ccc1F (single isomer, unassigned) [Example 36C] ; IC50 = 58.1

1 = C[C@@H]1C(=O)NCCN1C(=O)NC(c1ccc(C(F)(F)F)nc1)C1CC(C)(C)C1 (single isomer, unassigned) [Example 33B]
2 = C[C@@H]1C(=O)NCCN1C(=O)NC(c1ccc(F)c(Cl)c1F)C1CCC(C(F)(F)F)C1 (single isomer, unassigned) [Example 58D]
3 = O=C1NCCN(C(=O)N[C@H](c2ccc(F)c(Cl)c2F)[C@H]2C[C@H](C(F)(F)F)C2)C1C1CC1 (single isomer, unassigned) [Example 27B]
(Q) Please produce an ascending ranking of these compounds based on IC50. Provide the labels, sequenced as the question asks.
(A) 2, 3, 1

1 = C[C@@H]1C(=O)NCCN1C(=O)NC(c1ccc(F)c(Cl)c1F)C1CC(F)(F)C1 (single isomer, unassigned) [Example 24A]
2 = O=C1CN(C(=O)N[C@H](c2ccc(F)c(Cl)c2)C2CCC(C(F)(F)F)CC2)CCN1 (single isomer, unassigned) [Example 1B]
(Q) Record comparison, field IC50: mark the lower of 1 and 2 . Write down the label of the entry you select.
(A) 2

* * *

molecular target: human NaV1.8 (Homo sapiens, UniProt Q9Y5Y9); test: Nav1.8 Qube® Assay (automated 384-well patch-clamp, inhibition of sodium current); details: human NaV1.8 channels stably expressed in HEK 293 cells, room temperature
QUANTITY NAME: IC50 (nM)

P = C[C@@H]1C(=O)NCCN1C(=O)NC(c1ccc(F)c(Cl)c1F)[C@H]1C[C@H](C(F)F)C1 (single isomer, unassigned) [Example 29A]
Q = C[C@@H]1C(=O)NCCN1C(=O)NC(c1ccc(F)c(Cl)c1F)C1COc2ccccc2C1 (single isomer, unassigned) [Example 62D]
R = O=C1CN(C(=O)NC(c2ccc(Cl)c(C(F)(F)F)n2)C2CCC(C(F)(F)F)CC2)CCN1 (single isomer, unassigned) [Example 45A]
(Q) # rank_down: sort by IC50, max first // list labels; follow requested order
(A) R, P, Q

* * *

target: human NaV1.8 (Homo sapiens); test: Nav1.8 Qube® Assay (automated 384-well patch-clamp, inhibition of sodium current); details: human NaV1.8 channels stably expressed in HEK 293 cells, room temperature
QUANTITY NAME: IC50 (nM)

Consider C[C@@H]1C(=O)NCCN1C(=O)NC(c1ccc(F)c(Cl)c1F)C1CC(OC(F)F)C1 (single isomer, unassigned) [Example 39D] . Its measured IC50 is 8.1

# compound C[C@@H]1C(=O)NCCN1C(=O)NC(c1ccc(F)c(Cl)c1)C1CC(OCC(F)(F)F)C1 (single isomer, unassigned) [Example 44B] ; its IC50 = 335

Per the record, C[C@@H]1C(=O)NCCN1C(=O)NC(c1ccc(F)c(Cl)c1)[C@@H]1C[C@@H]2[C@H](C1)C2(F)F (single isomer, unassigned) [Example 7A] has IC50 of 112

The compound listed as [2H]C1([2H])NC(=O)C(C)N(C(=O)N[C@H](c2ccc(F)c(Cl)c2F)[C@H]2C[C@H](C(F)(F)F)C2)C1([2H])[2H] (single isomer, unassigned) [Example 59B] shows IC50 equal to 44

I = C[C@@H]1C(=O)NCCN1C(=O)NC(c1ccc(F)c(Cl)c1F)C1CC(C2CC2)C1 (single isomer, unassigned) [Example 21D]
II = C[C@@H]1C(=O)NCCN1C(=O)NC(c1ccc(F)c(Cl)c1F)C1CC2(C1)CC2(F)F (single isomer, unassigned) [Example 22C]
(Q) Lab note: check whether I or II has the lower measured IC50. State the label of the item chosen.
(A) II

I = C[C@@H]1C(=O)NCCN1C(=O)NC(c1ccc(F)c(Cl)c1)C1CC(C(F)(F)F)C1 (single isomer, unassigned) [Example 43C]
II = C[C@@H]1C(=O)NCCN1C(=O)NC(c1ccc(F)c(Cl)c1F)C1CCC(F)(F)C1 (single isomer, unassigned) [Example 42C]
(Q) Hi! Which is lower in terms of IC50, the first one I or the second one II ? Give the chosen item's label as your response.
(A) I
